- test summary: In vitro stability in microsomes (dog)
- Format: in vitro ADME
- stated conditions: dog, dogs, read-out: Half-life (T1/2) in microsomes
- Experimental: Respective half-lives (T1/2) were 9.5 hours (human), 23.1 hours (monkeys), >23.1 hours (mice), >23.1 hours (rats), 19.6 hours (rabbits), and >23.1 hours (dogs).
measurement name: half-life

half-life for Cc1ccc(C2=CC(C)(C)Oc3ccc(-c4ccc(-c5ccc(C(=O)O)cc5)[nH]4)cc32)cc1 ?
> 1390 min

====

- test summary: NHP non-GLP 14-day repeat-dose study, PK at the NOAEL
- stated conditions: male, cynomolgus monkey, in vivo, 10 mg/kg, 10 mg/kg (NOAEL), Day 1, mean ± SD
measurement name: half-life (h)
Only the number, expressed in h, is required.

What half-life value was documented for this compound, Cc1ccc(C2=CC(C)(C)Oc3ccc(-c4ccc(-c5ccc(C(=O)O)cc5)[nH]4)cc32)cc1 ?
7.9

====

- test summary: Rat GLP single dose study, PK at the NOAEL
- stated conditions: male, in vivo, 1000 mg/kg, single dose 1,000 mg/kg (NOAEL), Day 1, median
measurement name: Tmax (h)
# value in h; strip the unit string

Would you mind telling me what Tmax value was observed for Cc1ccc(C2=CC(C)(C)Oc3ccc(-c4ccc(-c5ccc(C(=O)O)cc5)[nH]4)cc32)cc1 ?
48

====

- test summary: Phase 1a single ascending oral dose study, PK
- stated conditions: male, human, in vivo; single oral dose 30 mg, fasted; geometric mean
measurement name: half-life (h)
Give your result in h as a bare value.

Return reported half-life; argument: Cc1ccc(C2=CC(C)(C)Oc3ccc(-c4ccc(-c5ccc(C(=O)O)cc5)[nH]4)cc32)cc1 [Compound A]
61.7

====

- test summary: Phase 1b MAD study (Part 1), 28-day dosing, PK
- Assay type: in vivo, human
- stated conditions: male, human, in vivo, oral, 15 mg, 15 mg once daily, Day 1; mean; read-out: AUC0-last
measurement name: AUC(0-t)

If you can, please state the reported AUC(0-t) value of Cc1ccc(C2=CC(C)(C)Oc3ccc(-c4ccc(-c5ccc(C(=O)O)cc5)[nH]4)cc32)cc1 .
4.85 µg·h/mL

====

- test summary: Phase 1b MAD study (Part 1), 28-day dosing, PK
- Format: in vivo, human
- stated conditions: male, human, in vivo, oral, 15 mg, 15 mg once daily, Day 28; mean; read-out: AUC0-24
measurement name: AUC(0-t) (ng·h/mL)
Quick reminder: number only, in ng·h/mL, skip the unit.

Dear colleague, I am looking for the recorded AUC(0-t) of the following compound: Cc1ccc(C2=CC(C)(C)Oc3ccc(-c4ccc(-c5ccc(C(=O)O)cc5)[nH]4)cc32)cc1 [Compound A]
6420

====

- test summary: NHP non-GLP 14-day repeat-dose study, PK at the NOAEL
- stated conditions: male, cynomolgus monkey, in vivo, 10 mg/kg, 10 mg/kg (NOAEL), Day 14, mean ± SD
measurement name: half-life (h)
Report the value in h with no unit label.

Which half-life is reported for this molecule? Cc1ccc(C2=CC(C)(C)Oc3ccc(-c4ccc(-c5ccc(C(=O)O)cc5)[nH]4)cc32)cc1 [Compound A]
6.2

====

- test summary: Phase 1a single ascending oral dose study, PK
- stated conditions: male, human, in vivo; single oral dose 90 mg, fasted; geometric mean
measurement name: Cmax
Returns: string containing the number followed by the unit.

Find the recorded Cmax belonging to Cc1ccc(C2=CC(C)(C)Oc3ccc(-c4ccc(-c5ccc(C(=O)O)cc5)[nH]4)cc32)cc1 and report it.
472 ng/mL

====

- test summary: Phase 1b MAD study (Part 1), 28-day dosing, PK
- Type: in vivo, human
- stated conditions: male, human, in vivo, oral, 30 mg; […] mg once daily, Day 28; mean
measurement name: half-life (h)
Return type: number; implicit unit h.

I'd like to know its half-life. The compound in question is Cc1ccc(C2=CC(C)(C)Oc3ccc(-c4ccc(-c5ccc(C(=O)O)cc5)[nH]4)cc32)cc1 [Compound A]
28.9

====

- test summary: Phase 1b MAD study (Part 1), 28-day dosing, PK
- Assay type: in vivo, human
- stated conditions: male, human, in vivo, oral, 30 mg, 30 mg once daily, Day 28; mean; read-out: AUC0-24
measurement name: AUC(0-t) (ng·h/mL)
Give just the numeric value; ng·h/mL need not be written.

State the recorded AUC(0-t) for this entry: Cc1ccc(C2=CC(C)(C)Oc3ccc(-c4ccc(-c5ccc(C(=O)O)cc5)[nH]4)cc32)cc1
9580

====

- test summary: Phase 1a single ascending oral dose study, PK
- stated conditions: male, human, in vivo; single oral dose 30 mg, fasted; geometric mean
measurement name: Cmax
Output should be the measured figure followed by the unit it is expressed in.

Item Cc1ccc(C2=CC(C)(C)Oc3ccc(-c4ccc(-c5ccc(C(=O)O)cc5)[nH]4)cc32)cc1 has what recorded Cmax?
200 ng/mL

====

- test summary: Phase 1b MAD study (Part 1), 28-day dosing, PK
- Format: in vivo, human
- stated conditions: male, human, in vivo, oral; 15 mg once daily, Day 28; mean
measurement name: half-life (h)
Output spec: scalar in h, unitless text.

For the compound Cc1ccc(C2=CC(C)(C)Oc3ccc(-c4ccc(-c5ccc(C(=O)O)cc5)[nH]4)cc32)cc1 , what half-life is on record?
35.8

====

- test summary: NHP exploratory 14-day non-GLP repeat-dose study
- Format: in vivo, cynomolgus monkey
- stated conditions: male, cynomolgus monkey, in vivo; NHP, 14-day repeat-dose
- Procedure: An exploratory 14-day non-GLP study was conducted in male NHPs (cynomolgus monkeys) for assessment of efficacy and toxicity parameters prior to the conduct of the 28-day GLP toxicity studies in rats and dogs.
measurement name: NOAEL at 14 days (mg/kg)
// units = mg/kg; emit number, no label

Endpoint output: NOAEL at 14 days of Cc1ccc(C2=CC(C)(C)Oc3ccc(-c4ccc(-c5ccc(C(=O)O)cc5)[nH]4)cc32)cc1 . Value?
10

====

- test summary: Dog GLP 28-day repeat-dose study, PK at the NOAEL
- stated conditions: male, Beagle, in vivo, 5 mg/kg, Cmax, 5 mg/kg (NOAEL), Day 1, n = 9, mean
measurement name: Cmax (ng/mL)
Field format: number, assumed ng/mL, no unit text.

Fill blank: measured Cmax of the compound Cc1ccc(C2=CC(C)(C)Oc3ccc(-c4ccc(-c5ccc(C(=O)O)cc5)[nH]4)cc32)cc1 [Compound A] is ____.
3410

====

- test summary: Phase 1a single ascending oral dose study, PK
- stated conditions: male, human, in vivo, po, 10 mg, single oral dose 10 mg, fasted; geometric mean; read-out: AUC0-last
measurement name: AUC(0-t) (ng·h/mL)
Numeric answer only, unit ng·h/mL assumed.

Quick one: AUC(0-t) of Cc1ccc(C2=CC(C)(C)Oc3ccc(-c4ccc(-c5ccc(C(=O)O)cc5)[nH]4)cc32)cc1 ?
8180

====

- test summary: Rat GLP single dose study, PK at the NOAEL
- stated conditions: male, in vivo, 1000 mg/kg, single dose 1,000 mg/kg (NOAEL), Day 1, median, calculated from only 2 animals
measurement name: half-life
Please append the unit to your numeric answer.

# half-life lookup, item Cc1ccc(C2=CC(C)(C)Oc3ccc(-c4ccc(-c5ccc(C(=O)O)cc5)[nH]4)cc32)cc1 [Compound A]
16.9 h

====

- test summary: Phase 1b MAD study (Part 1), 28-day dosing, PK;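 note: PK profiles sampled across 24 h on Day 1 and Day 28 while participants stayed overnight in the clinical research unit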
- Type: in vivo, human
- stated conditions: male, human, in vivo, oral, 15 mg, 15 mg once daily, Day 28; mean; read-out: Cmax
measurement name: Cmax (ng/mL)
Answer format: numeric, ng/mL implied, no suffix.

Given Cc1ccc(C2=CC(C)(C)Oc3ccc(-c4ccc(-c5ccc(C(=O)O)cc5)[nH]4)cc32)cc1 [Compound A] , state its recorded Cmax.
348

====

- test summary: NHP non-GLP 14-day repeat-dose study, PK at the NOAEL
- stated conditions: male, cynomolgus monkey, in vivo, 10 mg/kg, 10 mg/kg (NOAEL), Day 1, mean, read-out: AUC0-24
measurement name: AUC(0-t) (µg·h/mL)
Respond with the bare value in µg·h/mL.

Entry Cc1ccc(C2=CC(C)(C)Oc3ccc(-c4ccc(-c5ccc(C(=O)O)cc5)[nH]4)cc32)cc1 [Compound A] has what AUC(0-t)?
147

====

- system: CYP1A2 (Homo sapiens)
- Sequence (P05177 1-516): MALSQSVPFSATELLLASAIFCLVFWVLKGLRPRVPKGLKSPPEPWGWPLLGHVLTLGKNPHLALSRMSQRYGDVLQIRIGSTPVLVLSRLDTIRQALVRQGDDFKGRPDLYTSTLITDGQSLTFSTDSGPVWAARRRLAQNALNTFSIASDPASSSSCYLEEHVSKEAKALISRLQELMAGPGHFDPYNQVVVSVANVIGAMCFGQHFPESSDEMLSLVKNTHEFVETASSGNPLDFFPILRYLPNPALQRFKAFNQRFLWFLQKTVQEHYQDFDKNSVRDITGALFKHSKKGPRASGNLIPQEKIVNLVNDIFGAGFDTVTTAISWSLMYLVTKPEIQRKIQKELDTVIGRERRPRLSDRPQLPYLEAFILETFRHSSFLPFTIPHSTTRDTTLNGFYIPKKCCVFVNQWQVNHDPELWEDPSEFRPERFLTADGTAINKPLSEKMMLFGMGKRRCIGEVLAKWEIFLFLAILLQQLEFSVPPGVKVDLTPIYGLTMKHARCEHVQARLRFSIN
- test summary: In vitro CYP inhibition (direct and time-dependent), CYP1A2
- stated conditions: CYP1A2
measurement name: IC50
Units required after the number.

Endpoint output: IC50 of Cc1ccc(C2=CC(C)(C)Oc3ccc(-c4ccc(-c5ccc(C(=O)O)cc5)[nH]4)cc32)cc1 . Value?
30.1 µM

Source listed as patent US20260191825A1.
